# Test system: MCF7
# Protocol summary: NCI tumour cell line growth inhibition, 48 h
Calls of active or inactive are those of the source. Rule as the data show it: active = GI50 up to about 1.1 µM and inactive = higher. Square brackets hold non-standard residues; d marks the D form. Peptide text beside a SMILES is read from it. * marks the point of attachment. AllylGly = C=CC[CH](N)C(=O)O; Boc = CC(C)(C)OC(=O)*; OtBu = CC(C)(C)O*
Output constraint: value belongs to label 1 (active), label 0 (inactive)

Some solved cases for reference:
>>> class_assignment("C=CCC(NC(=O)C(CC(=O)OC(C)(C)C)NC(=O)OC(C)(C)C)C(=O)OC (stereo not given) (Boc-Asp(OtBu)-[AllylGly]-OMe; configuration not given here)")
"label 0"
>>> class_assignment("NC(=O)C(=CN1C(=O)CC(=O)NC1=S)C(N)=O")
"label 0"
>>> class_assignment("CNC(=O)SCC(N)C(=O)O (stereo not given)")
"label 0"
>>> class_assignment("CC1(C)N=C(N)N=C(N)N1c1ccc(CCCCCCc2ccc(S(=O)(=O)F)cc2)cc1")
"label 1"

Data request: Hi, sorry to bother you, what did the test record for `CCN(CCCl)c1cc(CN(C)C)cc(NC(=O)c2ccc(C(=O)Nc3ccccc3)cc2)c1` ?
Data returned: label 1

Data request: Which outcome was entered for the compound `O=Cc1ccc(Oc2c3ccccc3nc3ccccc23)cc1` in this test?
Data returned: label 0

Data request: // outcome(item) with item = CC1CC[P+](c2ccccc2)(c2ccccc2)c2c1ccc1ccccc21 (stereo not given)
Data returned: label 0

Data request: Tell me the recorded outcome of this test for CC1(C)C2CCC1(C)C(OC(=O)/C=C/C(=O)OC1CC3CCC1(C)C3(C)C)C2 (stereo not given) .
Data returned: label 0

###

# Test system: XF498
# Protocol summary: NCI tumour cell line growth inhibition, 48 h
Active and inactive are the calls of the source. No stated cut-off is given here; in the data, active = GI50 up to about 1.1 µM and inactive = higher.
Parameter: GI50

These recorded examples may help you get a feel for the data.
>>> recorded_value("Cc1cc(NCCCCCCNc2cc(C)nc3ccc(Cl)cc23)c2cc(Cl)ccc2n1")
"18.1 µM (inactive)"
>>> recorded_value("CN(C)CCC(=O)N1CCc2c([nH]c3ccccc23)C1c1cccnc1 (stereo not given)")
"> 100 µM (inactive)"

Per the records, this compound ( `CC1=C(C(=O)Nc2ccccc2C)C(/C=C/c2ccccc2)C(C(=O)Nc2ccccc2C)=C(C)N1` ) has GI50 equal to > 100 µM (inactive)

Recorded result, `CCOC(=O)Nc1cc2nnc(-c3ccccc3)nc2c(N)n1` , GI50: 31.4 µM (inactive)

###

# Test system: SN12C
# Protocol summary: NCI tumour cell line growth inhibition, 48 h
Active and inactive are the calls of the source. Rule as the data show it: active = GI50 up to about 1.1 µM and inactive = higher. Where a SMILES comes first, the peptide text is derived from it. The star is where a group is joined. Boc = CC(C)(C)OC(=O)*
Listed next: entries and their corresponding GI50.

Use the examples below as a reference point.
>>> recorded_value("O=C(NC(=O)c1cn(CCN(CCO)C(=O)NCCCCCCNC(=O)N(CCO)CCn2cc(C(=O)NC(=O)OCc3ccccc3)c(=O)[nH]c2=O)c(=O)[nH]c1=O)OCc1ccccc1")
"> 100 µM (inactive)"
>>> recorded_value("COC(=O)C(Cc1c[nH]c2ccccc12)NC(=O)C(Cc1c[nH]c2ccccc12)NC(=O)C(Cc1c[nH]c2ccccc12)NC(=O)C(Cc1c[nH]c2ccccc12)NC(=O)C(Cc1c[nH]c2ccccc12)NC(=O)C(Cc1c[nH]c2ccccc12)NC(=O)C(Cc1c[nH]c2ccccc12)NC(=O)C(Cc1c[nH]c2ccccc12)NC(=O)OC(C)(C)C (stereo not drawn) (Boc-WWWWWWWW-OMe; configuration not given here)")
"72.8 µM (inactive)"
>>> recorded_value("O=C(Nn1cnn2c(=O)c3ccccc3nc2c1=O)c1ccccc1")
"> 100 µM (inactive)"
>>> recorded_value("C[C@@H]1S[C@H](c2c(F)cccc2Cl)n2c1nc1ccccc12")
"15.6 µM (inactive)"

GI50 reported for this compound `NC(=O)C(=CN1C(=O)CC(=O)NC1=S)C(N)=O` : > 100 µM (inactive)

###

The entries below are paired with their reported GI50.
# System: SF-295
# Protocol summary: NCI tumour cell line growth inhibition, 48 h
Calls of active or inactive are those of the source. No stated cut-off is given here; in the data, active = GI50 up to about 1.1 µM and inactive = higher.

Known GI50 results, listed for orientation:
>>> recorded_value("COc1cc(C(c2cccc3ccccc23)N2C(=O)CCC2C(=O)NCc2ccccc2)cc(OC)c1OC (stereo unspecified)")
"> 100 µM (inactive)"
>>> recorded_value("CS/C(=N/C#N)NCCc1c[nH]c2ccccc12")
"> 100 µM (inactive)"
>>> recorded_value("COC(=O)/C(C)=N/N=C(\\S)SC")
"40.2 µM (inactive)"
>>> recorded_value("COc1cc(C2c3cc4c(cc3CC3COC(=O)N32)OCO4)cc(OC)c1OC (stereo unspecified)")
"0.729 µM (active)"
>>> recorded_value("CCOC(=O)C(=O)Nc1ccccc1C(F)(F)F")
"> 100 µM (inactive)"
>>> recorded_value("O=C1NC(=O)C(F)(n2cc(F)c(=O)[nH]c2=O)C(O)N1 (stereo unspecified)")
"> 10 µM (inactive)"

Continue with the next molecule.
The measured GI50 associated with `NC(=O)NN=C1Cc2ccccc2C1` reads > 100 µM (inactive)

###

Quick list: GI50 per entry.
# System: KM-20L2
# Protocol summary: NCI tumour cell line growth inhibition, 48 h
Active and inactive are the calls of the source. Rule as the data show it: active = GI50 up to about 1.1 µM and inactive = higher.

>>> recorded_value("CC(C)=C1CCC(CN2CCCC2)C1=O (stereo unspecified)")
"89.7 µM (inactive)"
>>> recorded_value("COc1cc(/C=C(\\C#N)C(=O)c2ccccc2)ccc1OCc1ccccc1")
"> 100 µM (inactive)"
>>> recorded_value("O=C1C=CC(=O)c2c1c1c(c3c2C2c4ccccc4C3c3ccccc32)C2c3ccccc3C1c1ccccc12")
"4.46 µM (inactive)"
>>> recorded_value("N#CC(C#N)C(c1ccccc1)c1ccccc1")
"> 100 µM (inactive)"
>>> recorded_value("Nc1cccc2c1C1=NNC(=O)CC1C2 (stereo unspecified)")
"> 100 µM (inactive)"

Given item `CCOC(=O)Nc1nc2cc(Cn3cccc3)ccc2[nH]1` , the value recorded as its GI50 is 3.25 µM (inactive)

###

# Tested on: DU-145
# Protocol summary: NCI tumour cell line growth inhibition, 48 h
Calls of active or inactive are those of the source. Rule as the data show it: active = GI50 up to about 1.1 µM and inactive = higher.
Classes to choose from: true (1) (active), false (0) (inactive)

>>> class_assignment("C=C(CN(C)C)C(=O)c1ccccc1")
"false (0)"
>>> class_assignment("CCCCNc1c(CN)cnc2cc(Cl)ccc12")
"false (0)"
>>> class_assignment("CCN(CC)CCC(=O)c1ccc(Cl)c(Cl)c1")
"false (0)"
>>> class_assignment("COc1ccc(Nc2nc3cc(C(F)(F)F)ccc3nc2C(=O)O)cc1")
"false (0)"
>>> class_assignment("COc1cc(C(c2cccc3ccccc23)N2C(=O)CCC2C(=O)NCc2ccccc2)cc(OC)c1OC (stereo not drawn)")
"false (0)"

Next, consider the following compound.
Data request: Test call, this compound: CC(C(=O)N1C(=O)N(C(=O)C(C)C(O)c2ccccc2)C(c2ccccc2)C1c1ccccc1)C(O)c1ccccc1 (stereo not drawn)
Data returned: false (0)

###

Below, each of the molecules is paired with its reported GI50 value.
# Tested on: SK-MEL-2
# Protocol summary: NCI tumour cell line growth inhibition, 48 h
Active and inactive are the calls of the source. Rule as the data show it: active = GI50 up to about 1.1 µM and inactive = higher.

Example molecules with recorded GI50:
>>> recorded_value("COC(=O)Cc1c([C@H]2[C@H](CC(=O)OC)c3ccccc3N2C(C)=O)[nH]c2ccccc12")
"> 100 µM (inactive)"
>>> recorded_value("C[C@]12CC[C@@H]3c4ccc(OCCN5CCCC5)cc4CC[C@H]3[C@@H]1CCC2=O")
"17.6 µM (inactive)"

The recorded GI50 for entry `O=C(OCc1ccc([N+](=O)[O-])cc1)N1c2ccccc2[C@@]23O[C@]24CCC[C@H]3C#C/C=C\C#C[C@H]14` equals > 100 µM (inactive)

###

Parameter: GI50. Scope: all listed entries.
# Tested on: 786-0
# Protocol summary: NCI tumour cell line growth inhibition, 48 h
Activity calls are given as the source filed them. Rule as the data show it: active = GI50 up to about 1.1 µM and inactive = higher.

# annotated cases, reported GI50 shown
>>> recorded_value("CN(C)CCC(=O)N1CCc2c([nH]c3ccccc23)C1c1cccnc1 (stereo not given)")
"> 100 µM (inactive)"
>>> recorded_value("O=C(N/C(=C\\c1ccccc1O)c1nc2ccccc2[nH]1)c1ccccc1")
"48.1 µM (inactive)"
>>> recorded_value("COc1ccccc1NS(=O)(=O)c1ccc2ncn(NS(=O)(=O)c3ccc(Cl)cc3)c(=O)c2c1")
"> 100 µM (inactive)"
>>> recorded_value("Cc1ccc(/N=N/c2c(O)ccc3cc(S(=O)(=O)O)cc(S(=O)(=O)O)c23)cc1")
"> 100 µM (inactive)"

Consider the record given below.
`Nc1nc2c(C(=O)O)c3ccc([N+](=O)[O-])cc3c(=O)n2c2ccccc12` yielded GI50 of 20.6 µM (inactive)
